STUDY_SYSTEM: T1, human GLP-1 receptor (human, UniProt P43220 24-463)
T1 construct: whole, on cells
ASSAY_REMARKS: competitive binding (SPA): displacement of 125I-GLP-1(7-36)NH2 from BHK cell membranes with human GLP-1 receptor; low HSA (max. 0.001% final)
pIC50: −log10 of the molar value. Numbered stars: 1 amine (or outer) side, 2 acyl side, 3 side chain; on linkers, the order of the positions; unused ones are H or OH. Square brackets hold non-standard residues; d marks the D form. Side chains are listed from the residue outwards. Ends that are not written are not given here. * marks the point of attachment. C20 diacid = O=C(O)CCCCCCCCCCCCCCCCCCC(=O)*; γGlu = O=C(O)[C@H](CCC(=O)[*:2])N[*:1]; Desaminohistidyl = O=C(CCc1c[nH]cn1)*; εLys = N[C@@H](CCCCN[*:1])C(=O)[*:2]; Trx = NC[C@H]1CC[C@H](C(=O)O)CC1; AEEA = NCCOCCOCC(=O)O; Aib = CC(C)(N)C(=O)O
Binary call on pIC50: 1.0 from 9 upward, 0.0 beneath that.

[
  {
    "BINDER": "H[Aib]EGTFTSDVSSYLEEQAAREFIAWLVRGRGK([AEEA-AEEA-AEEA-AEEA-AEEA-εLys-εLys-C20 diacid])GGSK([AEEA-AEEA-AEEA-AEEA-AEEA-εLys-εLys-C20 diacid]) (Double-acylated, C-terminally extended GLP-1 analogue made by SPPS; also called 27)",
    "CATEGORY": 1.0
  }
]

Attention now shifts to the item below.
Prompt line: Reported pIC50 reaches at least 9 for [Desaminohistidyl][Aib]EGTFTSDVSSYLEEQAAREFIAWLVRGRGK([AEEA-AEEA-AEEA-AEEA-γGlu-Trx-C20 diacid])GGSK([AEEA-AEEA-AEEA-AEEA-γGlu-Trx-C20 diacid]) (Double-acylated, C-terminally extended GLP-1 analogue made by SPPS; also called 18) [N{Alpha}([Imp …] ?
Response line: 0.0

Reference for the values: patent US20150011462A1
